- Procedure Text: yeast display, Sf9 membrane polyspecificity reagent, FACS + sequencing; frameworks hold sequencing errors
Observed Property: polyreactivity (PSR sort gate)

>>> result("QVQLVESGGGLVQAGGSLRFSCAASGFTFYEYAMGWYRQAPGKERELVAAINWNGGRTYYADSVKGRFTISRDNAKNTVYLQMNSLKPEDTAVYYCAARVAPKTKISRRYYWGQGTQVNVSS")
"high polyreactivity"
>>> result("QVQLVESGGGLVQAGGSLRLSCAASGSTFKYYAKGWYRQAPGKERELVAAISASGGTTYYADSVKGRFTISRDNAKNTVYLQMNSLKPEDTAVYYCAARYLTTFSRTDMEYWGQGTQVTVSS")
"low polyreactivity"
>>> result("QVQLVESGGGLVQAGGSLRLSCAASGFIFGPYAMGWYRTAPGKERELVAAITYSSGSTYYADSVKGRFTISRDNAKNTVYLQMNSLKPEDTAVYYCNAEFWYETLYEYDYWGQGTQVTVSS")
"high polyreactivity"
>>> result("QGQLVESGRGLVQAGGSLRLSSAASGSTFFANAMGWYRQAPGKERELVAAIDKRGGRTYYADSVKGRFTISRDNAKNTVYLQMNSLKPEDTAVYYCNAVANYRLKYDYWGQGTQVTVSS")
"high polyreactivity"
>>> result("QVQLVESGGGLVQAGGSLRLSCAASGSTFKGYAMGCYRQAPGKERELVAAISWSAGSTYYADSVKGRFTISRDNAKNTVYLQMNSLKPEDTAVYYCAKASVALRYYSYSLGRDYWGQGTQVTVSS")
"low polyreactivity"
